- protocol.description: Example 11: photographic sensitivity and fog, color format, blue sensitized emulsion T-2
- study.conditions: 0.44 x10^-3 mol/molAg
Counter-ions that a name gives are not always drawn.
experimental.endpoint: Fog

Entry CCSCCN(c1ccc(Cl)cc1)C(C)C(=O)O (stereo not shown) [Compound S-12, sodium salt] has what Fog?
0.16

Entry CCSCCN(c1ccc(C(=O)O)cc1)C(C)C(=O)O (stereo not shown) has what Fog?
0.09

Entry CCSCCN(c1cccc(C(N)=O)c1)C(C)C(=O)O (stereo not shown) has what Fog?
0.16

Entry CCSCCN(c1ccccc1)C(CC(=O)O)C(=O)O (stereo not shown) has what Fog?
0.09

---

- protocol.description: Example 10: photographic sensitivity and fog, color format, blue sensitized emulsion T-2
- study.conditions: 0.022 x10^-3 mol/mol Ag; control=100
Where a name gives a salt, the structure may show the parent alone.
experimental.endpoint: Photographic Sensitivity SWR2B
The response must contain the number and no unit.

Entry CCSCCN(CC(=O)[O-])c1ccc(C)cc1.[Na+] [Compound S-6] has what Photographic Sensitivity SWR2B?
120

Entry CCSCCN(c1ccc(C)cc1)[C@@H](C)C(=O)[O-].[Na+] [Compound S-3] has what Photographic Sensitivity SWR2B?
97

Entry CCSCCN(c1ccc(C)cc1)C(CC(=O)O)C(=O)O (stereo not shown) [Compound S-8] has what Photographic Sensitivity SWR2B?
107

Entry CCSCCN(c1ccccc1)C(C)C(=O)O (stereo not shown) [Compound S-9, sodium salt] has what Photographic Sensitivity SWR2B?
162

Source of measurements: patent US5747235A
